- System: Aging related changes of skin, nail and hair
- Test protocol: Summary of test results in volunteer subjects: aging related changes
- Format: in vivo, human
- Test settings: efficacy grade
Peptide text beside a SMILES is read from it.
Reported values of AG for individual entries

Compound | AG
CC(=O)N[C@@H](CC(C)C)C(=O)N[C@@H](C)C(=O)O [N-Ac-L-Leu-L-Ala-OH] (Ac-Leu-Ala-OH) | 2+ (2+: 50% Efficacy)

AG for CC(=O)N[C@@H](Cc1ccc(O)cc1)C(=O)N[C@@H](Cc1ccc(O)cc1)C(=O)O [N-Ac-L-Tyr-L-Tyr-OH] (Ac-Tyr-Tyr-OH) is 4+ (4+: 95-100% Efficacy)

AG for CC(=O)NCC(=O)NCC(N)=O is 2+ (2+: 50% Efficacy)

---

- Test system: Deranged immune disorders and inflammation
- Test protocol: Summary of test results in volunteer subjects: deranged immune disorders and inflammation
- Assay type: in vivo, human
- Test settings: efficacy grade
Peptide text beside a SMILES is read from it.
Measured metric: DI

Completed entries (count: 5):
Molecule | DI
CC(=O)N1CCC[C@H]1C(=O)NCC(N)=O [N-Ac-L-Pro-Gly-NH2] (Ac-Pro-Gly-NH2) | 3+ (3+: 75% Efficacy)
CC(=O)N[C@@H](Cc1c[nH]cn1)C(=O)NCC(N)=O [N-Ac-L-His-Gly-NH2] (Ac-His-Gly-NH2) | 2+ (2+: 50% Efficacy)
CC(=O)NCCC(=O)N[C@@H](Cc1c[nH]cn1)C(N)=O [N-Ac-βAla-L-His-NH2] | 2+ (2+: 50% Efficacy)
CC(=O)N[C@@H](CC(C)C)C(=O)N[C@@H](CC(C)C)C(N)=O [N-Ac-L-Leu-L-Leu-NH2] | 2+ (2+: 50% Efficacy)
CCC(=O)N[C@H](C(=O)N[C@@H](C)C(=O)O)C(C)C [N-Pr-L-Val-L-Ala-OH] (HELM PEPTIDE1{[CCC(=O)[*:2]].V.A}$$$$V2.0) | 3+ (3+: 75% Efficacy)

DI for CC(=O)NCCCC(=O)NCC(N)=O [N-Ac-Gaba-Gly-NH2] is 2+ (2+: 50% Efficacy)

DI for CC[C@H](C)[C@H](NC(C)=O)C(=O)NCC(=O)O [N-Ac-L-Ile-Gly-OH] (Ac-Ile-Gly-OH) is 3+ (3+: 75% Efficacy)

DI for CC(=O)N[C@@H](CC(N)=O)C(=O)NCC(N)=O [N-Ac-L-Asn-Gly-NH2] (Ac-Asn-Gly-NH2) is 2+ (2+: 50% Efficacy)

---

- Tested on: Deranged immune disorders and inflammation
- Test protocol: Summary of test results in volunteer subjects: deranged immune disorders and inflammation
- Type: in vivo, human
- Test settings: efficacy grade
Peptide text beside a SMILES is read from it.
Measured metric: DI

Completed entries (count: 3):
Compound | Reported
CC(=O)N[C@@H](CCC(N)=O)C(=O)NCC(N)=O [N-Ac-L-Gln-Gly-NH2] (Ac-Gln-Gly-NH2) | 2+ (2+: 50% Efficacy)
CC(=O)NCCC(=O)NCC(N)=O [N-Ac-β-Ala-Gly-NH2] | 2+ (2+: 50% Efficacy)
CC(=O)N[C@@H](Cc1ccc(O)cc1)C(=O)NCC(N)=O [N-Ac-L-Tyr-Gly-NH2] | 2+ (2+: 50% Efficacy)

DI for CC(=O)N[C@@H](CS)C(=O)NCC(N)=O [N-Ac-L-Cys-Gly-NH2] is 2+ (2+: 50% Efficacy)

DI for CC(=O)N[C@@H](CO)C(=O)NCC(N)=O [N-Ac-L-Ser-Gly-NH2] (Ac-Ser-Gly-NH2) is 2+ (2+: 50% Efficacy)

DI for NC(=O)CNC(=O)[C@H](Cc1ccc(O)cc1)NC(=O)OCc1ccccc1 [N-Z-L-Tyr-Gly-NH2] is 2+ (2+: 50% Efficacy)

DI for CC(=O)N[C@@H](CC(C)C)C(=O)N[C@@H](Cc1ccc(O)cc1)C(N)=O [N-Ac-L-Leu-L-Tyr-NH2] (Ac-Leu-Tyr-NH2) is 2+ (2+: 50% Efficacy)

DI for CC(=O)N[C@@H](CC(C)C)C(=O)N[C@@H](C)C(N)=O [N-Ac-L-Leu-L-Ala-NH2] (Ac-Leu-Ala-NH2) is 4+ (4+: 95-100% Efficacy)

---

- Tested on: Aging related changes of skin, nail and hair
- Test protocol: Summary of test results in volunteer subjects: aging related changes
- Format: in vivo, human
- Test settings: efficacy grade
Peptide text beside a SMILES is read from it.
Measured metric: AG

Compound | Reported
CCC(=O)N[C@H](C(=O)N[C@@H](C)C(=O)O)C(C)C [N-Pr-L-Val-L-Ala-OH] (HELM PEPTIDE1{[CCC(=O)[*:2]].V.A}$$$$V2.0) | 2+ (2+: 50% Efficacy)
CC[C@H](C)[C@H](NC(C)=O)C(=O)N[C@@H](Cc1ccc(O)cc1)C(N)=O [N-Ac-L-Ile-L-Tyr-NH2] (Ac-Ile-Tyr-NH2) | 2+ (2+: 50% Efficacy)
CC(=O)NNC(=O)[C@H](Cc1ccc(O)cc1)NC(=O)[C@H](Cc1ccc(O)cc1)NC(C)=O | 3+ (3+: 75% Efficacy)
CC(=O)N[C@@H](CS)C(=O)N[C@@H](CS)C(=O)O [N-Ac-L-Cys-L-Cys-OH] (Ac-Cys-Cys-OH) | 3+ (3+: 75% Efficacy)
CC(=O)N[C@H](C(=O)N[C@@H](C)C(=O)O)C(C)C [N-Ac-L-Val-L-Ala-OH] (Ac-Val-Ala-OH) | 2+ (2+: 50% Efficacy)
CC(=O)N[C@@H](CS)C(=O)N[C@@H](CS)C(N)=O [N-Ac-L-Cys-L-Cys-NH2] (Ac-Cys-Cys-NH2) | 3+ (3+: 75% Efficacy)
CC(=O)NCCC(=O)NCC(N)=O | 2+ (2+: 50% Efficacy)
CC[C@H](C)[C@H](NC(C)=O)C(=O)N[C@@H](C)C(N)=O [N-Ac-L-Ile-L-Ala-NH2] (Ac-Ile-Ala-NH2) | 2+ (2+: 50% Efficacy)

AG for CC(=O)N[C@@H](CCC(N)=O)C(=O)NCC(N)=O [N-Ac-L-Gln-Gly-NH2] (Ac-Gln-Gly-NH2) is 2+ (2+: 50% Efficacy)

AG for NC(=O)CNC(=O)[C@H](Cc1ccc(O)cc1)NC(=O)OCc1ccccc1 is 2+ (2+: 50% Efficacy)

AG for CC(=O)NCCCC(=O)NCC(N)=O is 2+ (2+: 50% Efficacy)

AG for CC(=O)N[C@@H](Cc1ccccc1)C(=O)N[C@@H](Cc1ccccc1)C(N)=O [N-Ac-L-Phe-L-Phe-NH2] (Ac-Phe-Phe-NH2) is 2+ (2+: 50% Efficacy)

AG for CCC(=O)N[C@@H](CC(C)C)C(=O)NCC(=O)O [N-Pr-L-Leu-Gly-OH] (HELM PEPTIDE1{[CCC(=O)[*:2]].L.G}$$$$V2.0) is 2+ (2+: 50% Efficacy)

AG for CC(=O)N[C@@H](Cc1c[nH]cn1)C(=O)NCC(N)=O [N-Ac-L-His-Gly-NH2] (Ac-His-Gly-NH2) is 2+ (2+: 50% Efficacy)

AG for CC(=O)N[C@@H](CC(C)C)C(=O)N[C@@H](CC(C)C)C(N)=O is 2+ (2+: 50% Efficacy)

---

- System: Deranged immune disorders and inflammation
- Test protocol: Summary of test results in volunteer subjects: deranged immune disorders and inflammation
- Format: in vivo, human
- Test settings: efficacy grade
- Description: In one embodiment, a composition for topical application to test its therapeutic effect was formulated by dissolving a bioactive dipeptide derivative of the present invention in a solution prepared from 40 parts water, 40 parts ethanol and 20 parts propylene glycol by volume (WEP442). […]
Peptide text beside a SMILES is read from it.
Measured metric: DI

Completed entries (count: 5):
Compound | DI
CC(=O)N[C@@H](CC(C)C)C(=O)NCC(N)=O [N-Ac-L-Leu-Gly-NH2] (Ac-Leu-Gly-NH2) | 4+ (4+: 95-100% Efficacy)
CC(=O)N[C@@H](CC(C)C)C(=O)N[C@@H](C)C(=O)O [N-Ac-L-Leu-L-Ala-OH] (Ac-Leu-Ala-OH) | 3+ (3+: 75% Efficacy)
CC(=O)N[C@@H](CS)C(=O)N[C@@H](CS)C(=O)O [N-Ac-L-Cys-L-Cys-OH] (Ac-Cys-Cys-OH) | 2+ (2+: 50% Efficacy)
CC[C@H](C)[C@H](NC(=O)[C@H](C)NC(C)=O)C(N)=O [N-Ac-L-Ala-L-Ile-NH2] (Ac-Ala-Ile-NH2) | 3+ (3+: 75% Efficacy)
CCOC(=O)[C@H](Cc1ccc(O)cc1)NC(=O)[C@H](Cc1ccc(O)cc1)NC(C)=O [N-Ac-L-Tyr-L-Tyr-OEt] (HELM PEPTIDE1{[ac].Y.Y.[CCO[*:1]]}$$$$V2.0) | 2+ (2+: 50% Efficacy)

DI for CC[C@H](C)[C@H](NC(C)=O)C(=O)N[C@@H](C)C(=O)O [N-Ac-L-Ile-L-Ala-OH] (Ac-Ile-Ala-OH) is 2+ (2+: 50% Efficacy)

DI for CC[C@H](C)[C@H](NC(C)=O)C(=O)N[C@@H](Cc1ccc(O)cc1)C(N)=O [N-Ac-L-Ile-L-Tyr-NH2] (Ac-Ile-Tyr-NH2) is 2+ (2+: 50% Efficacy)

Origin of measurements: patent US11224565B2
